- System: NCI-H2085
- TEST_SUMMARY: relative viability (nuclei count vs DMSO), 5 days (fraction); higher = more cells survive
- EXPERIMENTAL_CONDITIONS: first compound 0.03162 µM
Reported relative viability is given for each of the following molecules.

MOLECULE: CC(C)Oc1cc(Nc2nc(N[C@@H](C)c3ccc(F)cn3)ncc2Cl)n[nH]1 [AZ23] + Cc1nc(Nc2ncc(C(=O)Nc3c(C)cccc3Cl)s2)cc(N2CCN(CCO)CC2)n1 [Dasatinib] (partner 0.075 µM)
SUBJECT_OF_TEST: NCI-H2085
relative viability: 0.214

MOLECULE: CC(C)Oc1cc(Nc2nc(N[C@@H](C)c3ccc(F)cn3)ncc2Cl)n[nH]1 [AZ23] + CC1(C)CCC(c2ccc(Cl)cc2)=C(CN2CCN(c3ccc(C(=O)NS(=O)(=O)c4ccc(N[C@H](CCN5CCOCC5)CSc5ccccc5)c(S(=O)(=O)C(F)(F)F)c4)cc3)CC2)C1 [Navitoclax] (partner 0.5 µM)
SUBJECT_OF_TEST: NCI-H2085
relative viability: 1.27

MOLECULE: CC(C)Oc1cc(Nc2nc(N[C@@H](C)c3ccc(F)cn3)ncc2Cl)n[nH]1 [AZ23] + C[C@]1(O)C[C@@H](c2nc(-c3ccc4ccc(-c5ccccc5)nc4c3)c3c(N)nccn32)C1 [Linsitinib] (partner 1 µM)
SUBJECT_OF_TEST: NCI-H2085
relative viability: 1.02

MOLECULE: CC(C)Oc1cc(Nc2nc(N[C@@H](C)c3ccc(F)cn3)ncc2Cl)n[nH]1 [AZ23] + Cc1nc(NC(=O)N2CCC[C@H]2C(N)=O)sc1-c1ccnc(C(C)(C)C(F)(F)F)c1 [Alpelisib] (partner 2 µM)
SUBJECT_OF_TEST: NCI-H2085
relative viability: 0.999

MOLECULE: CC(C)Oc1cc(Nc2nc(N[C@@H](C)c3ccc(F)cn3)ncc2Cl)n[nH]1 [AZ23] + CC(=O)Nc1cccc(-n2c(=O)n(C3CC3)c(=O)c3c(Nc4ccc(I)cc4F)n(C)c(=O)c(C)c32)c1 [Trametinib] (partner 0.02 µM)
SUBJECT_OF_TEST: NCI-H2085
relative viability: 0.746

MOLECULE: CC(C)Oc1cc(Nc2nc(N[C@@H](C)c3ccc(F)cn3)ncc2Cl)n[nH]1 [AZ23] + C[C@@H](Oc1cc(-c2cnn(C3CCNCC3)c2)cnc1N)c1c(Cl)ccc(F)c1Cl [Crizotinib] (partner 1 µM)
SUBJECT_OF_TEST: NCI-H2085
relative viability: 0.94

----------
- System: NCI-H1792
- TEST_SUMMARY: relative viability (nuclei count vs DMSO), 5 days (fraction); higher = more cells survive
- EXPERIMENTAL_CONDITIONS: first compound 0.04 µM
PROPERTY_LABEL: relative viability

COMPOUND: C[C@@H]1CN(CC(=O)Nc2ccc3c(c2)Cc2cccc(-c4cc(=O)cc(N5CCOCC5)o4)c2S3)C[C@H](C)O1 + C[C@@H](Oc1cc(-c2cnn(C3CCNCC3)c2)cnc1N)c1c(Cl)ccc(F)c1Cl [Crizotinib] (partner 1 µM)
PROPERTY_LABEL: relative viability
MEASURED_VALUE: 0.966
--
COMPOUND: COc1cc(N2CCC(C(N)=O)CC2)ccc1Nc1nc(N)c(Cl)c(Nc2ccccc2S(=O)(=O)C(C)C)n1 [HG-5-88-01] + COc1cccc2cc(-c3nc([C@H]4CC[C@H](C(=O)O)CC4)n4ncnc(N)c34)[nH]c12 [OSI-027] (partner 0.5 µM)
PROPERTY_LABEL: relative viability
MEASURED_VALUE: 0.809
--
COMPOUND: Clc1ccc(Nc2nnc(Cc3ccncc3)c3ccccc23)cc1 [Vatalanib] + CS(=O)(=O)N1CCN(Cc2cc3nc(-c4cccc5[nH]ncc45)nc(N4CCOCC4)c3s2)CC1 [Pictilisib] (partner 1 µM)
PROPERTY_LABEL: relative viability
MEASURED_VALUE: 0.279
--
COMPOUND: Clc1ccc(Nc2nnc(Cc3ccncc3)c3ccccc23)cc1 [Vatalanib] + Cc1nc(Nc2ncc(C(=O)Nc3c(C)cccc3Cl)s2)cc(N2CCN(CCO)CC2)n1 [Dasatinib] (partner 0.075 µM)
PROPERTY_LABEL: relative viability
MEASURED_VALUE: 0.724

----------
- Test system: NCI-H460
- TEST_SUMMARY: relative viability (nuclei count vs DMSO), 5 days (fraction); higher = more cells survive
- EXPERIMENTAL_CONDITIONS: first compound 8 µM

COMPOUND: CCCCCCCCCCCC1=C(O)C(=O)C=C(O)C1=O [Embelin] + O=C(CCCCCCC(=O)Nc1ccccc1)NO [Vorinostat] (partner 1 µM)
relative viability: 0.397

COMPOUND: CCCCCCCCCCCC1=C(O)C(=O)C=C(O)C1=O [Embelin] + CS(=O)(=O)N1CCN(Cc2cc3nc(-c4cccc5[nH]ncc45)nc(N4CCOCC4)c3s2)CC1 [Pictilisib] (partner 1 µM)
relative viability: 0.48

COMPOUND: CCCCCCCCCCCC1=C(O)C(=O)C=C(O)C1=O [Embelin] + NC(=O)Nc1cc(-c2cccc(F)c2)sc1C(=O)N[C@H]1CCCNC1 [AZD7762] (partner 0.2 µM)
relative viability: 0.378

COMPOUND: CCCCCCCCCCCC1=C(O)C(=O)C=C(O)C1=O [Embelin] + Nc1nc2[nH]cc(CCc3ccc(C(=O)N[C@@H](CCC(=O)O)C(=O)O)cc3)c2c(=O)[nH]1 [Pemetrexed] (partner 0.2 µM)
relative viability: 0.0617

COMPOUND: CCCCCCCCCCCC1=C(O)C(=O)C=C(O)C1=O [Embelin] + CC(C)C[C@H](NC(=O)[C@H](Cc1ccccc1)NC(=O)c1cnccn1)B(O)O [Bortezomib] (partner 0.002 µM)
relative viability: 1.19

COMPOUND: CCCCCCCCCCCC1=C(O)C(=O)C=C(O)C1=O [Embelin] + CCNC(=O)c1noc(-c2cc(C(C)C)c(O)cc2O)c1-c1ccc(CN2CCOCC2)cc1 [Luminespib] (partner 0.01 µM)
relative viability: 0.029

COMPOUND: CCCCCCCCCCCC1=C(O)C(=O)C=C(O)C1=O [Embelin] + Cc1nc(Nc2ncc(C(=O)Nc3c(C)cccc3Cl)s2)cc(N2CCN(CCO)CC2)n1 [Dasatinib] (partner 0.075 µM)
relative viability: 0.416

----------
- Test system: NCI-H1355
- TEST_SUMMARY: relative viability (nuclei count vs DMSO), 5 days (fraction); higher = more cells survive
- EXPERIMENTAL_CONDITIONS: first compound 0.08 µM
Lab note: cut-off is 0.8. Strictly less in relative viability is satisfied. Exactly 0.8 or more is not satisfied.

COMPOUND: CCCCCCCCCCCC1=C(O)C(=O)C=C(O)C1=O [Embelin] + CC(=O)c1c(C)c2cnc(Nc3ccc(N4CCNCC4)cn3)nc2n(C2CCCC2)c1=O [Palbociclib] (partner 0.5 µM)
DISCRETE_LABEL: satisfied
//
COMPOUND: CCCCCCCCCCCC1=C(O)C(=O)C=C(O)C1=O [Embelin] + Cc1nc(NC(=O)N2CCC[C@H]2C(N)=O)sc1-c1ccnc(C(C)(C)C(F)(F)F)c1 [Alpelisib] (partner 2 µM)
DISCRETE_LABEL: not satisfied
//
COMPOUND: CCCCCCCCCCCC1=C(O)C(=O)C=C(O)C1=O [Embelin] + COc1cc2c(Oc3ccc(NC(=O)C4(C(=O)Nc5ccc(F)cc5)CC4)cc3F)ccnc2cc1OCCCN1CCOCC1 [Foretinib] (partner 0.25 µM)
DISCRETE_LABEL: not satisfied
//
COMPOUND: CCCCCCCCCCCC1=C(O)C(=O)C=C(O)C1=O [Embelin] + CS(=O)(=O)CCNCc1ccc(-c2ccc3ncnc(Nc4ccc(OCc5cccc(F)c5)c(Cl)c4)c3c2)o1 [Lapatinib] (partner 2 µM)
DISCRETE_LABEL: not satisfied
//
COMPOUND: CCCCCCCCCCCC1=C(O)C(=O)C=C(O)C1=O [Embelin] + CS(=O)(=O)N1CCN(Cc2cc3nc(-c4cccc5[nH]ncc45)nc(N4CCOCC4)c3s2)CC1 [Pictilisib] (partner 1 µM)
DISCRETE_LABEL: satisfied

----------
- Test system: NCI-H2023
- TEST_SUMMARY: relative viability (nuclei count vs DMSO), 5 days (fraction); higher = more cells survive
- EXPERIMENTAL_CONDITIONS: first compound 0.03162 µM
Reported relative viability is given for each of the following compounds.
PROPERTY_LABEL: relative viability

COMPOUND: CC(C)Oc1cc(Nc2nc(N[C@@H](C)c3ccc(F)cn3)ncc2Cl)n[nH]1 [AZ23] + Cc1nc(Nc2ncc(C(=O)Nc3c(C)cccc3Cl)s2)cc(N2CCN(CCO)CC2)n1 [Dasatinib] (partner 0.075 µM)
MEASURED_VALUE: 0.627
//
COMPOUND: CC(C)Oc1cc(Nc2nc(N[C@@H](C)c3ccc(F)cn3)ncc2Cl)n[nH]1 [AZ23] + CC(C)C[C@H](NC(=O)[C@H](Cc1ccccc1)NC(=O)c1cnccn1)B(O)O [Bortezomib] (partner 0.002 µM)
MEASURED_VALUE: 0.959
//
COMPOUND: CC(C)Oc1cc(Nc2nc(N[C@@H](C)c3ccc(F)cn3)ncc2Cl)n[nH]1 [AZ23] + CCNC(=O)c1noc(-c2cc(C(C)C)c(O)cc2O)c1-c1ccc(CN2CCOCC2)cc1 [Luminespib] (partner 0.01 µM)
MEASURED_VALUE: 0.829
//
COMPOUND: CC(C)Oc1cc(Nc2nc(N[C@@H](C)c3ccc(F)cn3)ncc2Cl)n[nH]1 [AZ23] + Cc1nc(NC(=O)N2CCC[C@H]2C(N)=O)sc1-c1ccnc(C(C)(C)C(F)(F)F)c1 [Alpelisib] (partner 2 µM)
MEASURED_VALUE: 0.675
